- System: Escherichia coli TOP10;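 also: peptides expressed intracellularly from a pBAD plasmid library in pooled LB shake-flask culture, induced with 0.3% L-arabinose, DNA abundance read by NGS, three biological replicates, DESeq2 with apeglm shrinkage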
- measurement.description: shrunken log2 fold change of peptide-encoding DNA abundance (4.5 h post-induction vs induction); higher = less antimicrobial activity (less host growth inhibition)
- conditions.used: time post-induction: 4.5 h; library: site-saturation at positions 5, 18, 19, 20
Reported shrunken log2 fold change by item:

// worked examples, shrunken log2 fold change included
[[record]]
primary_sequence = "RRIRERPPRLPRPRPRPYEAPRP"
measured_value = -0.59

[[record]]
primary_sequence = "RRIRSRPPRLPRPRPRPNVFPRP"
measured_value = -0.075

[[record]]
primary_sequence = "RRIRWRPPRLPRPRPRPHVYPRP"
measured_value = -0.132


[Q] Which measured shrunken log2 fold change value corresponds to RRIRMRPPRLPRPRPRPYGKPRP ?
[A] -0.0311

[Q] Need shrunken log2 fold change of RRIRSRPPRLPRPRPRPVRRPRP , thanks.
[A] 0.558

[Q] Entry RRIRIRPPRLPRPRPRPHWVPRP : reported shrunken log2 fold change = ?
[A] -0.0146

[Q] # get_value(readout='shrunken log2 fold change', item= RRIRYRPPRLPRPRPRPQNWPRP )
[A] -0.611

[Q] Find the recorded shrunken log2 fold change belonging to RRIRQRPPRLPRPRPRPHSCPRP and report it.
[A] -0.194

Reference source for all entries: the supplement of paper PMC9112550
